Cited source for all entries: patent US20210380703A1

Target: Mouse ACVR2A (mouse, UniProt P27038 20-135, limits assumed); note: test concentration or dose not given here
Sequence (P27038 20-135 limits assumed): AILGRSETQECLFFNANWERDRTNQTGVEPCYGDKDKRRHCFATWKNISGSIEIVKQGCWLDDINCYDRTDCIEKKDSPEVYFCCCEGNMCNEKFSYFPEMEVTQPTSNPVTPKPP
Assay: ELISA
parameterMeasured: optical density (OD)
Express the result in OD but write the number alone.

Below, each entry is followed by its recorded optical density result.
binder	readingUnit	reading
365_F06 (antibody, V domains shown, VH/VL only) VH: EVQLLESGGGLVQPGGSLRLSCAASGFTFSSYGMNWVRQAPGKGLEWVAGINYNSGYKSYADSVKGRFTISRDNSKNTLYLQMNSLRAEDTAVYYCARSANWHDTALDYWGQGTLVTVSS VL: DIQMTQSPSSLSASVGDRVTITCRASQSILSYVNWYQQKPGKAPKLLIYAATSRASGVPSRFSGSGSGTDFTLTISSLQPEDFATYYCQQSDNLPLTFGGGTKVEIK	OD	2.08
376_A07 (antibody, V domains shown, VH/VL only) VH: EVQLLESGGGLVQPGGSLRLSCAASGFTFSSYSMNWVRQAPGKGLEWVSGINYNGGYKSYADSVKGRFTISRDNSKNTLYLQMNSLRAEDTAVYYCARGATWHDTHLDYWGQGTLVTVSS VL: DIQMTQSPSSLSASVGDRVTITCRASQSILTYLNWYQQKPGKAPKLLIYAATSRASGVPSRFSGSGSGTDFTLTISSLQPEDFATYYCQQSYDSPLTFGGGTKVEIK	OD	3.72

Okay, next one:
Looking for the measured optical density of 367_H10 (antibody, V domains shown, VH/VL only) VH: EVQLLESGGGLVQPGGSLRLSCAASGFTFSSYGMNWVRQAPGKGLEWVASINYNGGYTGYADSVKGRFTISRDNSKNTLYLQMNSLRAEDTAVYYCARGATWHDTHLDYWGQGTLVTVSS VL: DIQMTQSPSSLSASVGDRVTITCRASQSILSYVNWYQQKPGKAPKLVIYAATSRASGVPSRFSGSGSGTDFTLTISSLQPEDFATYYCQQSYELPLTFGGGTKVEIK , can you help? 2.35
